I'd appreciate it if you could supply Ki values for the items below.
Biological target: Cathepsin B (Homo sapiens)
Experiment: Inhibition of human cathepsin B
Settings: read-out: Ki
Numbers only, in µM.

For orientation, consider the following solved cases.
> print(dat)
                                   compound         experimental.system  unit.spec  value.observed
1  CC(=O)Oc1cc2cc3c(cc2c(-c2ccc(N)cc2)n1)OCO3  Cathepsin B (Homo sapiens)         µM             6.7
2  COc1ccc(-c2c3cc4c(cc3cc(=O)n2NC(=O)Nc2ccc(SC)cc2)OCO4)cc1  Cathepsin B (Homo sapiens)         µM               4
3  COc1ccc(-c2c3cc(OCc4ccccc4)c(OCc4ccccc4)cc3cc(=O)n2N)cc1  Cathepsin B (Homo sapiens)         µM             3.3

Provide Ki values for the following items, in order.
1. CC(C)C[C@H](NC(=O)[C@H]1O[C@@H]1C(=O)O)C(=O)NCCCCN=C(N)N [E-64]
2. Cc1cc2cc3c(cc2c(-c2ccc(N)cc2)n1)OCO3
3. COc1ccc(-c2c3cc4c(cc3cc(=O)n2NC(=O)OC(C)(C)C)OCO4)cc1
4. COc1ccc(-c2c3cc4c(cc3cc(=O)n2N)OCO4)cc1

Reply |
1. 16
2. 6.9
3. 7.5
4. 16.3

Provide Ki values for the following items, in order.
1. COc1ccc(-c2c3cc4c(cc3cc(=O)n2NC(=O)Nc2ccc(C(C)=O)cc2)OCO4)cc1
2. CCOC(=O)Nn1c(-c2ccc(OC)cc2)c2cc3c(cc2cc1=O)OCO3

Reply |
1. 3.7
2. 16.7

###

Target: Procathepsin L (Homo sapiens)
Sequence (P07711 whole entry): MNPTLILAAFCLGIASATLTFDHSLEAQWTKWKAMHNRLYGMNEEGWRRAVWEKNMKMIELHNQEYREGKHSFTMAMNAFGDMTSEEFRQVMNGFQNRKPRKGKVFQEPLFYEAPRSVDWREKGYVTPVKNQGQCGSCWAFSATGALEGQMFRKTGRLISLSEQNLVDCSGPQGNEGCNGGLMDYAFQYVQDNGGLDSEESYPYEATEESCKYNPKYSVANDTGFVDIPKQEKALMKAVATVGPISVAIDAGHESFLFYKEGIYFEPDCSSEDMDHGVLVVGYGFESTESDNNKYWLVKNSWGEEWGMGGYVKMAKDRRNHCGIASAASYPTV
# strict inequality: Ki < 8 µM yields fulfilled, everything else yields not fulfilled

> print(dat)
                                  structure            experimental.system    class.label
1  COc1ccc(-c2c3cc(OC)c(OC)cc3cc(=O)n2NC(=O)OC(C)(C)C)cc1  Procathepsin L (Homo sapiens)  not fulfilled
2  CC(=O)Oc1cc2cc3c(cc2c(-c2ccc(N)cc2)n1)OCO3  Procathepsin L (Homo sapiens)  not fulfilled
3      Cc1cc2cc3c(cc2c(-c2ccc(N)cc2)n1)OCO3  Procathepsin L (Homo sapiens)  not fulfilled
4  COc1ccc(-c2c3cc4c(cc3cc(=O)n2NC(=O)Nc2ccc(SC)cc2)OCO4)cc1  Procathepsin L (Homo sapiens)      fulfilled
5  CCOC(=O)Nn1c(-c2ccc(OC)cc2)c2cc3c(cc2cc1=O)OCO3  Procathepsin L (Homo sapiens)      fulfilled

Ask | Is Ki strictly under 8 µM for the entry "COc1ccc(-c2c3cc4c(cc3cc(=O)n2NC(=O)OC(C)(C)C)OCO4)cc1" ?
Reply | fulfilled

Ask | Another molecule: "COc1ccc(-c2c3cc(OCc4ccccc4)c(OCc4ccccc4)cc3cc(=O)n2N)cc1"
Reply | fulfilled

Ask | Another molecule: "COc1ccc(-c2c3cc4c(cc3cc(=O)n2N)OCO4)cc1"
Reply | fulfilled

Ask | Another molecule: "COc1ccc(-c2c3cc4c(cc3cc(=O)n2NC(=O)Nc2ccc(C(C)=O)cc2)OCO4)cc1"
Reply | fulfilled
